# Target desc: human GLP-1 receptor (GLP-1R) (human, UniProt P43220 24-463); note: reference of the scale not given here
# Assay summary: cell-based or functional assay
Label class 1 when hGLP1R cAMP EC50 ratio >= 0.08 ratio; otherwise class 0.

# count of solved cases: 5
Binder: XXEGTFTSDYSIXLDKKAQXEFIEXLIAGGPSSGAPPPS (D-Tyr1; Aib2; αMeL13; K17 conjugated to (2-[2-(2-Amino-ethoxy)-ethoxy]-acetyl)2-(γ-Glu)-CO-(CH2)16-CO2H; Aib20; αMeY25; C-terminal amide) [Example 374]
Group label: class 1
--
Binder: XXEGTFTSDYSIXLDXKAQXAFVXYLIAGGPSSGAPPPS (D-Tyr1; Aib2; αMeL13; Orn16; K17 conjugated to (2-[2-(2-Amino-ethoxy)-ethoxy]-acetyl)2-(γ-Glu)-CO-(CH2)16-CO2H; Aib20; D-Glu24; C-terminal amide) [Example 364]
Group label: class 0
--
Binder: XXEGTFTSDYSIXLDXKAQXEFIEYLIAGGPSSG (D-Tyr1; Aib2; αMeL13; Orn16; K17 conjugated to (2-[2-(2-Amino-ethoxy)-ethoxy]-acetyl)2-(γ-Glu)-CO-(CH2)18-CO2H; Aib20; C-terminal amide) [Example 370]
Group label: class 1
--
Binder: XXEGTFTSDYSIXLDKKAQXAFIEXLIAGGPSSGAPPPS (D-Tyr1; Aib2; αMeL13; K17 conjugated to (2-[2-(2-Amino-ethoxy)-ethoxy]-acetyl)2-(γ-Glu)-CO-(CH2)16-CO2H; Aib20; αMeY25; C-terminal amide) [Example 376]
Group label: class 1
--
Binder: XXEGTFTSDYSIXLDKKAQXAFVXYLIAGGPSSGAPPPS (D-Tyr1; Aib2; αMeL13; K17 conjugated to (2-[2-(2-Amino-ethoxy)-ethoxy]-acetyl)2-(γ-Glu)-CO-(CH2)18-CO2H; Aib20; D-Glu24; C-terminal amide) [Example 361]
Group label: class 0

**Q:** Check if hGLP1R cAMP EC50 ratio >= 0.08 ratio (inclusive). Item: XXEGTFTSDYSIXLDKKAQXEFIEXLIEGGPSSGAPPPS (D-Tyr1; Aib2; αMeL13; K17 conjugated to (2-[2-(2-Amino-ethoxy)-ethoxy]-acetyl)2-(γ-Glu)-CO-(CH2)18-CO2H; Aib20; αMeY25; C-terminal amide) [Example 379]
**A:** class 1

**Q:** Does the reported hGLP1R cAMP EC50 ratio for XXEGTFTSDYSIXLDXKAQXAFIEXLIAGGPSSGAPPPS (D-Tyr1; Aib2; αMeL13; Orn16; K17 conjugated to (2-[2-(2-Amino-ethoxy)-ethoxy]-acetyl)2-(γ-Glu)-CO-(CH2)18-CO2H; Aib20; αMeY25; C-terminal amide) [Example 366] fall at or above the 0.08 ratio mark?
**A:** class 0

Data credit: patent US20220048967A1
